Biological target: PANC08.13 cells (Homo sapiens, UniProt P01116, G12D)
Construct: p-ERK/total ERK AlphaSureFire read-out
Experiment: Cellular phospho-ERK assay, PANC08.13 cells (KRAS G12D)
Details: 2 hours, read-out: PANCO 813 pERK IC50
Experimental: Procedure for Cellular Phospho-ERK Assay in KRAS Wild Type and Mutant (G12D, G12V) Cell Lines […] Cells for the assay were harvested in growth medium after TrypLE (ThermoFisher scientific 12604021) digestion and were seeded in a 384-well collagen coated cell culture plate (Corning 356702) at a density of 10,000-15,000 cells/20 μL/well, and incubated at 37° C., 5% CO2 overnight. […] Dose response curves were analyzed using a 4-parameter logistic model to calculate IC50 values using Spotfire software.
pIC50: −log10 of the molar value.
Everything with pIC50 lower than 6 is condition not met; everything else, including exactly 6, is condition met.

>>> category("Cc1cc2[nH]ncc2c(-c2nccc3c2sc2nc(OC[C@]4(CO)CC4(F)F)nc(N4C[C@H]5CC[C@@H](C4)N5)c23)c1OC(F)(F)Cl")
"condition not met"
>>> category("Cc1cc2[nH]ncc2c(-c2nccc3c4c(N5C[C@H]6CC[C@@H](C5)N6)nc(OC[C@@]56CCCN5C[C@H](F)C6)nc4n(C)c23)c1C(F)F (single isomer, unassigned)")
"condition met"
>>> category("Cc1cc2[nH]ncc2c(-c2nccc3c2sc2nc(OC[C@]4(CO)CC4(F)F)nc(N4C[C@H]5CC[C@@H](C4)N5)c23)c1C(F)(F)F")
"condition not met"
>>> category("Nc1nc2c(-c3nccc4c3sc3nc(OC[C@@]56CCCN5C[C@H](F)C6)nc(N5C[C@H]6CC[C@@H](C5)N6)c34)ccc(F)c2s1")
"condition not met"

---

molecular target: KRAS WT (Homo sapiens); assay: SOS-catalyzed nucleotide exchange assay, KRAS WT (Procedure A); type: biochemical; settings: GNE
Sequence (P01116 with tags, fused parts or gaps isoform P01116-2): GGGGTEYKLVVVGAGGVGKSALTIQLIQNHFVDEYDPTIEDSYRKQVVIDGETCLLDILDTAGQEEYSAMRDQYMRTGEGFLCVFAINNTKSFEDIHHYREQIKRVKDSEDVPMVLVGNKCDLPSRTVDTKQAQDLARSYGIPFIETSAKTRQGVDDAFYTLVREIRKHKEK
pIC50: −log10 of the molar value.
endpoint-name: pIC50

>>> result("C#Cc1c(F)ccc2cc3[nH]ncc3c(-c3nccc4c3sc3nc(OC[C@@]56CCCN5C[C@H](F)C6)nc(N5C[C@H]6CC[C@@H](C5)N6)c34)c12")
6.65
>>> result("C#Cc1c(F)ccc2cc3[nH]ncc3c(-c3nccc4c3sc3nc(OC[C@@]56CCCN5C/C(=C\\F)C6)nc(N5C[C@@H]6C[C@H](O)[C@H](C5)N6)c34)c12")
7.44
>>> result("Cc1cc2[nH]ncc2c(-c2nccc3c2sc2nc(OC[C@@]45CCCN4C[C@H](F)C5)nc(N4C[C@H]5CC[C@@H](C4)N5)c23)c1C(F)(F)F")
5.24
>>> result("C#Cc1c(F)ccc2cc3[nH]ncc3c(-c3nccc4c3sc3nc(OCC5(CN(C)C)COC5)nc(N5C[C@H]6CC[C@@H](C5)N6)c34)c12")
5.55
>>> result("C#Cc1c(F)ccc2cc3[nH]ncc3c(-c3nccc4c3sc3nc(OC[C@]5(CN6CC[C@@H](F)C6)CC5(F)F)nc(N5C[C@H]6CC[C@@H](C5)N6)c34)c12")
5.63
>>> result("CCc1c(F)ccc2cc3[nH]ncc3c(-c3nccc4c3sc3nc(OC[C@@]56CCCN5C[C@H](F)C6)nc(N5C[C@H]6CC[C@@H](C5)N6)c34)c12")
6.33
>>> result("Cc1cc2[nH]ncc2c(-c2nccc3c4c(N5C[C@H]6CC[C@@H](C5)N6)nc(OC[C@@]56CCCN5C[C@H](F)C6)nc4n(C)c23)c1C(F)(F)F (single isomer, unassigned)")
5.19

---

molecular target: AsPC-1 cells (Homo sapiens, UniProt P01116, G12D); construct: p-ERK/total ERK AlphaSureFire read-out; assay: Cellular phospho-ERK assay, AsPC-1 cells (KRAS G12D); conditions: 2 hours, read-out: AsPC1 pERK IC50
Sequence (P01116 1-188 isoform P01116-2 G12D): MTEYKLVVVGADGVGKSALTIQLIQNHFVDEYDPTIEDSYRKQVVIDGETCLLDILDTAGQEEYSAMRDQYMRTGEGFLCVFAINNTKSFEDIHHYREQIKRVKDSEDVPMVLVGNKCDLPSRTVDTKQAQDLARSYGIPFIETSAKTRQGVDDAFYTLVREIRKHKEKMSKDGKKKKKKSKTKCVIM
endpoint-name: IC50

>>> result("F[C@H]1CN2CCC[C@@]2(COc2nc(N3C[C@H]4CC[C@@H](C3)N4)c3c(n2)sc2c(-c4c(C5CC5)c(Cl)cc5[nH]ncc45)nccc23)C1")
"296 nM"
>>> result("Cc1cc2[nH]ncc2c(-c2nccc3c2sc2nc(OC[C@H]4CCCO4)nc(N4C[C@H]5CC[C@@H](C4)N5)c23)c1C(F)(F)F")
"11300 nM"
>>> result("C#Cc1c(F)ccc2cc3[nH]ncc3c(-c3nccc4c3sc3nc(OC[C@@]56CCCN5C[C@H](F)C6)nc(N5C[C@H]6CC[C@@H](C5)N6)c34)c12")
"31.8 nM"
>>> result("C#Cc1cc(F)cc2cc3[nH]ncc3c(-c3nccc4c3sc3nc(OC[C@@]56CCCN5C[C@H](F)C6)nc(N5C[C@H]6CC[C@@H](C5)N6)c34)c12")
"54.6 nM"
>>> result("COC1(COc2nc(N3C[C@H]4CC[C@@H](C3)N4)c3c(n2)sc2c(-c4c(C(F)(F)F)c(C)cc5[nH]ncc45)nccc23)CC1")
"> 30000 nM"
>>> result("Cc1cc2[nH]ncc2c(-c2nccc3c2sc2nc(OCC4CCS(=O)(=O)C4)nc(N4C[C@H]5CC[C@@H](C4)N5)c23)c1C(F)(F)F (stereo partly drawn)")
"> 30000 nM"
>>> result("C#Cc1cccc2cccc(-c3nccc4c5c(N6C[C@H]7CC[C@@H](C6)N7)nc(OC[C@@]67CCCN6C[C@H](F)C7)nc5n(C)c34)c12")
"490 nM"
>>> result("Cc1cc2[nH]ncc2c(-c2nccc3c2sc2nc(OCC4(C)CNC(=O)C4)nc(N4C[C@H]5CC[C@@H](C4)N5)c23)c1C(F)(F)F (stereo partly drawn)")
"> 30000 nM"
>>> result("Cc1cc2[nH]nc(C#N)c2c(-c2nccc3c2sc2nc(OC[C@@]45CCCN4C[C@H](F)C5)nc(N4C[C@H]5CC[C@@H](C4)N5)c23)c1C(F)(F)F")
"2200 nM"

---

target: KRAS G12V (Homo sapiens, UniProt P01116, G12V); experiment: SOS-catalyzed nucleotide exchange assay, KRAS G12V (Procedure A); assay type: biochemical; conditions: GNE
Sequence (P01116 with tags, fused parts or gaps isoform P01116-2 G12V): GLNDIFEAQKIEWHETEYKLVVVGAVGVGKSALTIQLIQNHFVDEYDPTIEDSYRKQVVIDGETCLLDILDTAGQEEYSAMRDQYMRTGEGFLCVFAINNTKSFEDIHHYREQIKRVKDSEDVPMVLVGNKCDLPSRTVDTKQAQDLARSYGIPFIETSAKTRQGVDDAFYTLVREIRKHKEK
endpoint-name: IC50

>>> result("C#Cc1cccc2cc3[nH]ncc3c(-c3nccc4c3sc3nc(OC[C@@]56CCCN5C[C@H](F)C6)nc(N5C[C@H]6CC[C@@H](C5)N6)c34)c12 [Ex-55]")
"0.105 µM"
>>> result("Cc1cc2[nH]ncc2c(-c2nccc3c2sc2nc(OCC4CCS4(=O)=O)nc(N4C[C@H]5CC[C@@H](C4)N5)c23)c1C(F)(F)F (some centres unmarked) [Ex-31]")
"> 11.1 µM"
>>> result("Cc1cc2[nH]ncc2c(-c2nccc3c2sc2nc(N4CCCN(C)CC4C)nc(N4C[C@H]5CC[C@@H](C4)N5)c23)c1C(F)(F)F (some centres unmarked) [Ex-81]")
"> 11.1 µM"
>>> result("C#Cc1cccc2cccc(-c3nccc4c3sc3nc(OC[C@@]56CCCN5C[C@H](F)C6)nc(N5C[C@H]6CC[C@@H](C5)N6)c34)c12 [Ex-10]")
"6.88 µM"
>>> result("Nc1nc2c(-c3nccc4c3sc3nc(OC[C@@]56CCCN5C[C@H](F)C6)nc(N5C[C@H]6CC[C@@H](C5)N6)c34)c(F)cc(F)c2o1 [Ex-15]")
"> 11.1 µM"
>>> result("C#Cc1c(F)ccc2cc3[nH]ncc3c(-c3nccc4c3sc3nc(OC[C@]5(CN6CCC7(CC6)CC(Cc6cn(C)nn6)C7)CC5(F)F)nc(N5C[C@H]6CC[C@@H](C5)N6)c34)c12 [Ex-106]")
"1.7 µM"
>>> result("Cc1cc2[nH]ncc2c(-c2nccc3c2sc2nc(OCC4(S(C)(=O)=O)CC4)nc(N4C[C@H]5CC[C@@H](C4)N5)c23)c1C(F)(F)F [Ex-33]")
"> 11.1 µM"
>>> result("C#Cc1c(F)ccc2cc3[nH]ncc3c(-c3nccc4c3sc3nc(OC[C@]5(CN6CCN(C(C)=O)CC6)CC5(F)F)nc(N5C[C@H]6CC[C@@H](C5)N6)c34)c12 [Ex-102]")
"> 11.1 µM"
>>> result("C#Cc1c(F)ccc2cc3[nH]ncc3c(-c3nccc4c3sc3nc(OC[C@]5(CN6CCC7(CCCCC7)CC6)CC5(F)F)nc(N5C[C@H]6CC[C@@H](C5)N6)c34)c12 [Ex-100]")
"> 11.1 µM"
>>> result("Cc1cc2[nH]ncc2c(-c2nccc3c2sc2nc(OC[C@@]45CCCN4C[C@H](F)C5)nc(N4C[C@@H]5C[C@H]4CN5)c23)c1C(F)(F)F [Ex-69]")
"> 11.1 µM"
>>> result("C#Cc1c(F)ccc2cc3[nH]ncc3c(-c3nccc4c3sc3nc(OC[C@]5(CN6CC7(CC(F)C7)C6)CC5(F)F)nc(N5C[C@H]6CC[C@@H](C5)N6)c34)c12 [Ex-99]")
"2.74 µM"
>>> result("Cc1cc2[nH]ncc2c(-c2nccc3c2sc2nc(OCC4CCS(=O)(=O)C4)nc(N4C[C@H]5CC[C@@H](C4)N5)c23)c1C(F)(F)F (some centres unmarked) [Ex-30]")
"> 11.1 µM"
>>> result("Cc1cc2[nH]ncc2c(-c2nccc3c2sc2nc(OC[C@@]45CCCN4C[C@H](F)C5)nc(N4C5CNCC4C5)c23)c1C(F)(F)F [Ex-68]")
"1.36 µM"
>>> result("C#Cc1c(F)ccc2cc3[nH]ncc3c(-c3nccc4c3sc3nc(OC[C@@]56CCC7(CC7)N5C[C@H](F)C6)nc(N5C[C@H]6CC[C@@H](C5)N6)c34)c12 [Ex-97]")
"3.13 µM"
>>> result("C#Cc1c(F)ccc2cc(N)nc(-c3nccc4c5c(N6C[C@H]7CC[C@@H](C6)N7)nc(OC[C@@]67CCCN6C[C@H](F)C7)nc5n(C)c34)c12 [Ex-7]")
"> 11.1 µM"
>>> result("Cc1cc2[nH]ncc2c(-c2nccc3c4c(N5CC[C@H]6NCC[C@H]65)nc(OC[C@@]56CCCN5C[C@H](F)C6)nc4n(C)c23)c1C(F)(F)F [Ex-66]")
"> 11.1 µM"
>>> result("Fc1ccc2cc3[nH]ncc3c(-c3nccc4c3sc3nc(OC[C@@]56CCCN5C[C@H](F)C6)nc(N5C[C@H]6CC[C@@H](C5)N6)c34)c2c1Cl [Ex-59]")
"1.37 µM"
>>> result("Cc1cc2[nH]ncc2c(-c2nccc3c2sc2nc(OC[C@]4(CO)CC4(F)F)nc(N4C[C@H]5CC[C@@H](C4)N5)c23)c1C(F)(F)F [Ex-25]")
"> 11.1 µM"
>>> result("F[C@H]1CN2CCC[C@@]2(COc2nc(N3C[C@H]4CC[C@@H](C3)N4)c3c(n2)sc2c(-c4c(C5CC5)c(C(F)(F)F)cc5[nH]ncc45)nccc23)C1 [Ex-80]")
"0.734 µM"
>>> result("Cc1cc2[nH]ncc2c(-c2nccc3c2sc2nc(OC[C@]4(CO)CC4(F)F)nc(N4C[C@H]5CC[C@@H](C4)N5)c23)c1OC(F)(F)Cl [Ex-52]")
"> 11.1 µM"
>>> result("Cc1cc2[nH]ncc2c(-c2nccc3c2sc2nc(OCC4CS(=O)(=O)C4)nc(N4C[C@H]5CC[C@@H](C4)N5)c23)c1C(F)(F)F [Ex-27]")
"> 11.1 µM"
>>> result("Cc1cc2[nH]ncc2c(-c2nccc3c2sc2nc(OCC4CCS(=O)(=O)CC4)nc(N4C[C@H]5CC[C@@H](C4)N5)c23)c1C(F)(F)F [Ex-36]")
"> 11.1 µM"
>>> result("Cc1cc2[nH]ncc2c(-c2nccc3c2sc2nc(OC[C@@]45CCCN4C[C@H](F)C5)nc(N4CC5CC(C4)N5)c23)c1C(F)(F)F [Ex-67]")
"0.672 µM"
